- assay.setup: 308.15 K; 100 kPa; Liquid; Vibrating tube method
Quick list: mass density per entry.

[
  {
    "chemical.smiles": "CCC1CCCCC1",
    "unit.of.measurement": "kg/m3",
    "mass density": 776.11
  },
  {
    "chemical.smiles": "CC1CCCCC1",
    "unit.of.measurement": "kg/m3",
    "mass density": 756.53
  },
  {
    "chemical.smiles": "CCCCC1CCCCC1",
    "unit.of.measurement": "kg/m3",
    "mass density": 788.33
  },
  {
    "chemical.smiles": "C1CCC(C2CCCCC2)CC1",
    "unit.of.measurement": "kg/m3",
    "mass density": 875.6
  }
]
